Test System: recombinant light chain enterokinase (Bos taurus, UniProt P98072)
Construct: enterokinase cleavage using 30 nM recombinant light chain enterokinase (Novagen); purchased Novagen, Madison, Wis
Sequence (P98072 801-1035 limits assumed): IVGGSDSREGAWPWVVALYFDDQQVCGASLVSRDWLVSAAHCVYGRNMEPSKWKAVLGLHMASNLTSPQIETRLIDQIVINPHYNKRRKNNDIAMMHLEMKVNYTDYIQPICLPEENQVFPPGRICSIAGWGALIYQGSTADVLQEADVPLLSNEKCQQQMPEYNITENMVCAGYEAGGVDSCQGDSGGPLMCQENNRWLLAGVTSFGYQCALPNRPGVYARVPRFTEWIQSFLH
Method: Cleavage site test: digestion of synthetic test peptides to completion, HPLC and mass spectroscopy
Assay type: biochemical
Assay Conditions: 60 to 100 μg peptide digested to completion (36-48 hrs) with 20U enterokinase; reverse phase HPLC, electrospray MS
Property Name: recovered product, product peak 1

Query (sequence): GNYTDRRFI (synthetic enterokinase cleavage sequence) ; field requested: recovered product, product peak 1
GNYTDR

Same for GNYTDRYFI (commercial synthetic enterokinase cleavage substrate)
GNYTDR

Now consider GNYTDRMFI (synthetic enterokinase cleavage sequence) and answer again.
GNYTDR

Values compiled from patent US6906176B2.
